Plant response rating, Rice listing for selected molecules.
tested on: rice; test: Test B preemergence/postemergence greenhouse plant response rating 0 to 10; assay type: in vivo, Oryza sativa; details: Rate 200 g/ha, POSTEMERGENCE; 0 to 10 scale
Please respond with just the number, no unit label.

COC(=O)c1cc(-c2nn3c(c2Cl)CCCC3)c(F)cc1Cl [Compound 43]
9

Q: State its Plant response rating, Rice: Clc1cc(Cl)c(-c2nn3c(c2Cl)CCCC3)cc1OCC1CC1 [Compound 69]
Result: 6

Q: State its Plant response rating, Rice: C#CC(C)Oc1cc(-c2nn3c(c2Cl)CCCC3)c(Cl)cc1Cl (centres unmarked) [Compound 74]
Result: 6

Q: State its Plant response rating, Rice: CCOC(=O)c1cc(-c2nn3c(c2Cl)CCCC3)c(F)cc1Cl [Compound 78]
Result: 6

Q: State its Plant response rating, Rice: CC(C)COc1cc(-c2nn3c(c2Cl)CCCC3)c(F)cc1Cl [Compound 30]
Result: 5
